- Tested on: A549/ATCC NSCLC
- test.name: NCI-60 one-dose screen, 48 h (100 = growth as untreated, 0 = no growth, -100 = all killed)
- settings: 10 µM unless noted
Compounds without any hit were thinned out: in the full panel of roughly 83,000, 20% have a hit. Activity calls are given as the source filed them. Rule for the calls: active = growth percent below 10; inactive = the rest.
property: growth

The examples below pair each entry with its known result.
- molecule: "COc1cc(-n2cc(-c3cc(O)c(C/C=C(\\C)CCC=C(C)C)c(O)c3)nn2)cc2c1O[C@]1(C)CC[C@@H](O)C(C)(C)[C@H]1C2"
  growth: "10.3% (inactive)"
- molecule: "O=C(Nc1ncc(Cc2ccc(Cl)c(C(F)(F)F)c2)s1)c1ccc2nnsc2c1"
  growth: "40.7% (inactive)"

IN: Return growth measured with A549/ATCC NSCLC given this molecule: CN(C)c1ccc(/C=C/C(=O)c2ccc(-n3cc(CN4CCN(c5cc6c(cc5F)c(=O)c(C(=O)O)cn6C5CC5)CC4)nn3)cc2)cc1
OUT: 82.2% (inactive)

IN: Return growth measured with A549/ATCC NSCLC given this molecule: CCOC(=O)Cn1c(O)c(N=Nc2ccc(S(N)(=O)=O)cc2)c2cc(Br)ccc21
OUT: 30.7% (inactive)

IN: Return growth measured with A549/ATCC NSCLC given this molecule: N#CC1=C(N)Oc2c(sc3c(Br)cccc23)C1c1ccc(F)cc1 (centres undefined)
OUT: 24.1% (inactive)

IN: Return growth measured with A549/ATCC NSCLC given this molecule: CCc1n(Cc2ccc3ccccc3c2)cc[n+]1Cc1ccc2ccccc2c1
OUT: 28.5% (inactive)

IN: Return growth measured with A549/ATCC NSCLC given this molecule: N#Cc1cccc(NC(=O)c2oc3ccccc3c2-c2cnn(-c3ccccc3)c2)c1
OUT: 81.4% [50 µM] (inactive)

IN: Return growth measured with A549/ATCC NSCLC given this molecule: COc1ccc(-c2cc(-c3ccc(Cl)cc3)c(C#N)c(=O)n2CCCCC(=O)Nc2ccccc2N)cc1
OUT: 43.8% (inactive)

IN: Return growth measured with A549/ATCC NSCLC given this molecule: Cc1cc2c([nH]1)CSc1cc(S(=O)(=O)c3ccccc3)c(=O)[nH]c1-2
OUT: 52.2% [100 µM] (inactive)

IN: Return growth measured with A549/ATCC NSCLC given this molecule: O=C1C(Cl)=C(Nc2ccc(O)cc2)C(=O)N1Cc1ccc(Cl)cc1
OUT: 71.6% (inactive)

IN: Return growth measured with A549/ATCC NSCLC given this molecule: C/C(Nc1ccc(Cl)c(Cl)c1)=C1\CCOC1=O
OUT: 88.6% (inactive)

IN: Return growth measured with A549/ATCC NSCLC given this molecule: COc1ccc2c3c([nH]c2c1)C(=O)c1nc(C)ccc1C3=O
OUT: -11.9% (active)

IN: Return growth measured with A549/ATCC NSCLC given this molecule: CN(C)CCNc1nc2c3cc(Cl)ccc3nn2c2ccccc12
OUT: 31.5% (inactive)

IN: Return growth measured with A549/ATCC NSCLC given this molecule: CCCC(O)Cn1ncc(C(=O)OCC)c1NC(=O)NCc1ccccc1F (centres undefined)
OUT: 82.4% (inactive)

* * *

- Test system: SF-268 CNS
- test.name: NCI-60 one-dose screen, 48 h (100 = growth as untreated, 0 = no growth, -100 = all killed)
- settings: 10 µM unless noted
About 83,000 compounds went through this panel and 20% of them were active in at least one assay; those are over-represented in the sample as a whole.
Recorded measurements of growth, one per entry
Kindly answer with a numeric value in %, unit omitted.

- compound: "CN1CCN(c2ccc(NC(=O)c3cncnc3Nc3ccc(OCc4ccccn4)c(Cl)c3)cc2)CC1"
  property: "growth"
  assay.value: 68.9
- compound: "O=C(CSc1nc2sc3c(c2c(=O)n1-c1ccccc1)CCCCC3)N/N=C/c1ccc(F)cc1"
  property: "growth"
  assay.value: 7.96
- compound: "COc1ccc(C(=O)Nc2ncc(Cc3cccc(Cl)c3)s2)cc1OC"
  property: "growth"
  assay.value: 50.8
- compound: "COc1ccc(/C=N/C2=C(C#N)C(c3cccc(Cl)c3)c3c(ccc4ccccc34)O2)cc1 (stereo not drawn)"
  property: "growth"
  assay.value: 45.9
- compound: "O=C(Cn1cc(CN2CCCCCC2)nn1)Nc1ccc2c(ccn2Cc2ccccc2)c1"
  property: "growth"
  assay.value: 93.6

IN: Return growth measured with SF-268 CNS given this compound: CN(C)CCCC1(c2ccc(F)cc2)OCc2cc(-c3cccc4[nH]ccc34)ccc21 (stereo not drawn)
OUT: 41

IN: Return growth measured with SF-268 CNS given this compound: CCn1c(=S)sc2c(Nc3ccc(F)cc3)nc(-c3cccnc3)nc21
OUT: 56.4

IN: Return growth measured with SF-268 CNS given this compound: Fc1ccc(Nc2nc3nonc3nc2Nc2ccc(I)cc2)cc1
OUT: 22

* * *

- Tested on: OVCAR-5 ovarian
- test.name: NCI-60 one-dose screen, 48 h (100 = growth as untreated, 0 = no growth, -100 = all killed)
- settings: 10 µM unless noted
Compounds without any hit were thinned out: in the full panel of roughly 83,000, 20% have a hit.
Recorded measurements of growth, one per entry
Kindly answer with a numeric value in %, unit omitted.

- smiles.text: "O=S(=O)(Nc1ccc(Cl)cc1)c1ccc(-c2cnc(C3CC3)o2)cc1"
  growth / %: 43.9
- smiles.text: "CN(C)CCNC(=O)c1cccc(-c2cnc3ccc(-c4ccc5c(c4)OCO5)nn23)c1"
  growth / %: 89.3
- smiles.text: "Cc1nc(N2CCOCC2)sc1S(N)(=O)=O"
  growth / %: 96.5
- smiles.text: "CN1CCN(Cc2ccc3c(NNC(=O)c4ccccc4)nc4cc(F)ccc4n23)CC1"
  growth / %: 59.2

Attention now turns to another entry.
IN: Which measured growth value corresponds to O=C(Cn1c(-c2ccc([N+](=O)[O-])cc2)nc2ccccc21)NNC(=O)c1cccnc1 ?
OUT: 101

* * *

Recorded measurements of growth, one per entry
- System: COLO 205 colon
- test.name: NCI-60 one-dose screen, 48 h (100 = growth as untreated, 0 = no growth, -100 = all killed)
- settings: 10 µM unless noted
The panel holds about 83,000 compounds, 20% with a hit somewhere; the sample as a whole holds those more often.
Kindly answer with a numeric value in %, unit omitted.

The examples below pair each entry with its known result.
- molecule: "COc1ccc(-c2nnc(-c3ccc4c(c3)nc(-c3ccncc3)n4C3CCCCC3)o2)cc1"
  result.units: "%"
  growth: 59.2
- molecule: "Cc1cc2c(O)c(-c3cc(Cl)ccc3Cl)c3sc(=O)oc3c2cc1C"
  result.units: "%"
  growth: 112
- molecule: "C=C(CNCCc1ccc(O)cc1)[C@@H]1CC[C@]2(CO)CC[C@]3(C)[C@H](CC[C@@H]4[C@@]5(C)CCC(NCCO)C(C)(C)[C@@H]5CC[C@]43C)[C@@H]12 (stereo not given in full)"
  result.units: "%"
  growth: -68.5
- molecule: "CCCCNC(=O)Oc1ccc(/C(=C(/CC)Cc2ccccc2)c2ccc(OCCN3CCCCCC3)cc2)cc1"
  result.units: "%"
  growth: -75

Attention now turns to another entry.
IN: Which measured growth value corresponds to CNC(=O)c1cc(Oc2ccc3nc(NC(C)=O)sc3c2)ccn1 ?
OUT: 105

* * *

- System: SF-539 CNS
- test.name: NCI-60 one-dose screen, 48 h (100 = growth as untreated, 0 = no growth, -100 = all killed)
- settings: 10 µM unless noted
This is part of a sample that, as a whole, favours compounds with a hit. Of some 83,000 tested, about 20% had one in any assay.
Recorded measurements of growth, one per entry
Kindly answer with a numeric value in %, unit omitted.

- compound: "CC(C)N1CCN(Cc2ccc3c(NNC(=O)c4ccccc4)nc4cc(F)ccc4n23)CC1"
  growth / %: 10.5
- compound: "Cc1nc(N2CCOCC2)sc1S(N)(=O)=O"
  growth / %: 98
- compound: "Cc1cc2c(O)c(-c3cc(Cl)ccc3Cl)c3sc(=O)oc3c2cc1C"
  growth / %: 89.9
- compound: "CNC(=O)c1c(NC(=O)c2ccc(C(F)(F)F)cc2)sc2c1CCC(=O)C2"
  growth / %: -58.6
- compound: "COc1cc2oc(-c3cccc(NC(=O)c4cccc(Br)c4)c3)cc(=O)c2c(OC)c1OC"
  growth / %: 69
- compound: "N#C/C(=C/c1ccc([N+](=O)[O-])cc1)n1nnc2cc(F)c(F)cc21"
  growth / %: 20.7
- compound: "CC(=O)n1nc(C(=O)OC(C)C)c2cc(C)c(C)cc21"
  growth / %: 107
- compound: "NC(=O)CCC(C(=O)O)N1C(=O)c2ccc(O)cc2C1=O (stereo unspecified)"
  growth / %: 106

IN: Which measured growth value corresponds to N#CC1CCc2c(c(-c3cn[nH]c3C(F)(F)F)nc3c(F)cc4[nH]ncc4c23)C1 (stereo unspecified) ?
OUT: 20.4

IN: Which measured growth value corresponds to COC(=O)c1c2c(c(C)[n+]([O-])c1C)C(=O)C=C(NCc1ccc(Br)cc1)C2=O ?
OUT: -86.8
